Kindly supply the reported CC50 at 72 h values for the records listed here.
Experiment: Cytotoxicity against human HepG2 cells after 72 hrs by MTT assay
Assay type: cell-based
Give bare numbers, in µM.

Example compounds with recorded CC50 at 72 h:
# SMILES_RECORD, CC50 at 72 h (µM)
records = [
    ("Cc1nc2c(S(=O)(=O)c3ccc(Cl)cc3)c(N)c3ccccc3c2s1", 1),
    ("Cc1nc2c(S(=O)(=O)c3ccc(Cl)cc3)cc3ccccc3c2s1", 6),
    ("Cc1nc2c(S(=O)(=O)c3ccccc3)cc3cc(F)ccc3c2s1", 26),
]

// next entry
# input compound: Cc1ccc(S(=O)(=O)c2cc3cc(F)ccc3c3sc(C)nc23)cc1 ; wanted: its CC50 at 72 h 3.1
